# SYSTEM: human Claudin 18.2 (CLDN18.2) (human, UniProt P56856-2 1-261)
# PROTOCOL_DETAILS: cell-based or functional assay
REPORTED_METRIC: ADCC EC50, NUGC4-CLDN18.2, PBMC

# annotated cases, reported ADCC EC50, NUGC4-CLDN18.2, PBMC shown
[
  {
    "BINDER": "413H9F8-cp3 (antibody, V domains shown, humanized IgG; constant regions not specified) VH: DVQLVESGGGLVQPGGSLRLSCAASGFTFSSFGMHWVRQAPGKGLEWVAYISSGSSPIYYVDKLKGRFTVSRDNAKNSLYLQMNSLRAEDTAVYYCARAGYAVRNALDYWGQGTLVTVSS VL: EIVMTQSPPTLSLSPGERVTLSCKSSQSLLNVGNQKNYLAWYQQKPGQAPRLLIYGASTRESGIPARFSGSGSGTDFTLTISSLQPEDFAVYYCQNDLFYPLTFGGGTKVEIK",
    "ADCC EC50, NUGC4-CLDN18.2, PBMC": "5.86 nM"
  },
  {
    "BINDER": "364D1A7-H1L5 (antibody, V domains shown, humanized IgG; constant regions not specified) VH: EVQLVESGGGLVQPGGSLRLSCAASGFTFSSFGMHWVRQAPGKGLEWVSYISSGSGSIYYADTVKGRFTISRDNAKNSLYLQMNSLRAEDTAVYYCATSYYYGNALEYWGQGTTVTVSS VL: DVVLTQSPDSLAVSLGERATISCKSSQSLFNVGNQKNYLTWYQQKPGQTPTLLIYWASTRKSGVPDRFTGSGSGTDFTLTISSLQAEDVAVYYCQNVYSYPLTFGAGTKVEIK",
    "ADCC EC50, NUGC4-CLDN18.2, PBMC": "8.17 nM"
  }
]

Pending binder:
## Task What value of ADCC EC50, NUGC4-CLDN18.2, PBMC has been reported for the following binder? 364D1A7-H3L1 (antibody, V domains shown, humanized IgG; constant regions not specified) VH: EVQLVESGGGLVQPGGSLRLSCAASGFTFSSFGMHWVRQAPGKGLEWVAYISSGSGSIYYADTVKGRFTLSRDNPKNSLYLQMNSLRAEDTAVYYCATSYYYGNALEYWGQGTTVTVSS VL: DIVMTQSPDSLAVSLGERATINCKSSQSLFNVGNQKNYLTWYQQKPGQPPKLLIYWASTRKSGVPDRFSGSGSGTDFTLTISSLQAEDVAVYYCQNVYSYPLTFGGGTKVEIK
## Result 11.3 nM
